system: SF-295; assay: NCI tumour cell line growth inhibition, 48 h
Active and inactive are the calls of the source. No stated cut-off is given here; in the data, active = GI50 up to about 1.1 µM and inactive = higher.
TEST READOUT: GI50

molecule=COc1ccc(C[C@H]2COC(=O)[C@@H]2Cc2ccc(Br)cc2)cc1OC observed_value="14.5 µM (inactive)"
molecule="Nc1ncn(C2OC(COP(=O)(O)O)C(O)C2O)c(=O)n1 (centres undefined)" observed_value="> 100 µM (inactive)"
molecule="Cc1ccccc1C(C#N)/C(=N/NC(=O)C(=O)NN)C(=O)Nc1cccc(C(F)(F)F)c1 (centres undefined)" observed_value="> 100 µM (inactive)"
molecule="CCC[S+]([O-])c1nc(COC(=O)NC)c(COC(=O)NC)n1C (centres undefined)" observed_value="> 100 µM (inactive)"
molecule="O=C(NCCN1CCOCC1)c1ccc2cc(C(=O)N3CC(CCl)c4ccc([N+](=O)[O-])cc43)[nH]c2c1 (centres undefined)" observed_value="3.18 µM (inactive)"
molecule="Cc1ccc(S(=O)(=O)C2=Cc3ccc(C(F)(F)F)cc3C2(O)c2cccc(C(F)(F)F)c2)cc1 (centres undefined)" observed_value="2.45 µM (inactive)"
molecule=COC(=O)c1ccccc1/N=C/c1ccc(N(CCC#N)S(=O)(=O)c2ccccc2)cc1 observed_value="> 100 µM (inactive)"
molecule=O=C(O)c1ccc(Nc2cnc3cc(C(F)(F)F)ccc3n2)cc1 observed_value="89.3 µM (inactive)"
molecule="Cc1ccc2[nH]c3c(c2c1)C1CCC(C(C)(C)C)CC1C1C(=O)N(c2ccc4c(c2)OCO4)C(=O)C31 (centres undefined)" observed_value="3.11 µM (inactive)"
molecule="COc1cc(CC2c3cc(OC)c(OC)cc3CCN2C)c(Oc2cc3c(cc2OC)-c2c(O)c(OC)cc4c2C(C3)N(C)CC4)cc1OC (centres undefined)" observed_value="17.9 µM (inactive)"
molecule=CC(C)CCC[C@@H](C)[C@H]1CC[C@H]2[C@@H]3CC[C@H]4C[C@@H](CCC=C(c5cc(Cl)c(O)c(C(=O)O)c5)c5cc(Cl)c(O)c(C(=O)O)c5)CC[C@]4(C)[C@H]3CC[C@]12C observed_value="> 100 µM (inactive)"
molecule=COc1ccc(OC)c(CCc2ccccc2CC(=O)O)c1 observed_value="> 100 µM (inactive)"
molecule="CC1(C)OC([C@H](O)CO)C([C@H]2NCCS2)O1 (some centres undefined)" observed_value="> 100 µM (inactive)"
molecule=CCCc1nn(C)c(CCC(=O)N(Cc2ccccc2)Cc2ccccc2)c1CC observed_value="> 100 µM (inactive)"
molecule=CCCCCCCCCCCCCCCCCc1nnc(N)o1 observed_value="> 100 µM (inactive)"
molecule=Cc1cc(O)c(C(C)C)cc1CN1CCCCC1 observed_value="> 100 µM (inactive)"
molecule=Nc1c(C(=O)NC23CC4CC(CC(C4)C2)C3)[n+]([O-])c2ccccc2[n+]1[O-] observed_value="> 100 µM (inactive)"
molecule=CCOC(=O)c1ccc(NCc2ccc3oc(=O)c(-c4ccccc4)nc3c2)cc1 observed_value="> 100 µM (inactive)"
molecule=C=C(Nc1ccc([N+](=O)[O-])cc1[N+](=O)[O-])c1c/c(=N\NC(N)=S)c2ccccc2o1 observed_value="39.5 µM (inactive)"

====

system: SK-MEL-5; assay: NCI tumour cell line growth inhibition, 48 h
Active and inactive are the calls of the source. Rule as the data show it: active = GI50 up to about 1.1 µM and inactive = higher.
Outcomes: active, inactive

molecule="CC1(C)OCC(C(O)C2OC(C)(C)OC2C=O)O1 (stereo not drawn)" class_label=inactive
molecule=Cc1ccc(O)c(/N=N\c2c(O)cc(S(=O)(=O)O)c3ccccc23)c1 class_label=inactive
molecule=CO[C@@]12C[C@@H](C)[C@]34O[C@H]3C[C@]3(C)O[C@]43CC1=C(C)C(=O)O2 class_label=inactive
molecule=CN(C)c1cccc2c(S(=O)(=O)NCCCNCCN)cccc12 class_label=inactive
molecule="COC1O[C@@H]2CCN3C(=O)[C@@H](OC(=O)c4ccc([N+](=O)[O-])cc4)[C@H]1C23 (stereo partly drawn)" class_label=inactive
molecule="CC[C@@H]1/C=C/C=C/C[C@H](C)[C@@H](O)[C@@H](C)C(=O)[C@H](C)[C@@H](O)[C@H](C)C(=O)[C@H](C)[C@@H](O)[C@H](C)/C=C/C(=O)O[C@H]2[C@@H](C)[C@@H](CC1)O[C@@]1(CC[C@@H](C)[C@@H](CC(C)O)O1)[C@@H]2C (stereo partly drawn)" class_label=active
molecule=O=c1[nH]c2cc3[nH]c4ncccc4c(=O)c3cc2[nH]1 class_label=inactive
molecule=COC(=O)/C=C/c1cc(OC)c2oc(-c3ccc(OC)c(OC)c3)c(C(=O)OC)c2c1 class_label=inactive

====

system: KM-20L2; assay: NCI tumour cell line growth inhibition, 48 h
The source made the active and inactive calls. No stated cut-off is given here; in the data, active = GI50 up to about 1.1 µM and inactive = higher.
Property: GI50; scope: individual compounds
TEST READOUT: GI50

compound=Cc1c(N2CCN(C)CC2)nc2ccc(Cl)cc2c1-c1ccccc1 observed_value="15.7 µM (inactive)"
compound="O=C(CC1SC(Nc2ccccc2Cl)=NC1=O)Nc1ccc(Cl)cc1Cl (centres undefined)" observed_value="> 100 µM (inactive)"
compound=Nc1cc2c3c(cccc3c1)C(=O)N(CCN1CCN(CCN3C(=O)c4cccc5cc(N)cc(c45)C3=O)CC1)C2=O observed_value="> 100 µM (inactive)"
compound="CC(=O)/C=C\\C1CC2C=CC1C2 (centres undefined)" observed_value="40.2 µM (inactive)"
compound="COC(=O)C1=C(c2ccc(OC)c(OC)c2)OC(c2ccc(OC)c(OC)c2)C1 (centres undefined)" observed_value="39.4 µM (inactive)"
compound="CC(=O)NC(CCCNC(=O)OCc1ccccc1)C(=O)O (centres undefined)" observed_value="> 100 µM (inactive)"
compound=COc1ccc(OC)c(CCc2ccccc2CC(=O)O)c1 observed_value="> 100 µM (inactive)"
compound="COc1ccc(C2N3CCCCC3[C@@H]3c4[nH]c5ccccc5c4CCN23)c(OC)c1 (some centres undefined)" observed_value="18.8 µM (inactive)"
compound="CCOC(=O)CCC1(C(=O)OCC)CCCC1=O (centres undefined)" observed_value="> 100 µM (inactive)"

====

tested on: SF-268; test: NCI tumour cell line growth inhibition, 48 h
The source made the active and inactive calls. No stated cut-off is given here; in the data, active = GI50 up to about 1.1 µM and inactive = higher.
Outcomes: active, inactive

molecule="CC1CC(C)C2OC2(C)C[C@H](C)C(=O)NC(C)C(=O)N(C)[C@H](Cc2c(Br)[nH]c3ccccc23)C(=O)N[C@@H](c2ccc(O)cc2)CC(=O)O1 (stereo partly specified)" system_name=SF-268 class_label=active
molecule=O=c1[nH]c2cc3[nH]c4ncccc4c(=O)c3cc2[nH]1 system_name=SF-268 class_label=inactive
molecule=O=C1C(NCCc2ccc(O)c(O)c2)=CC(=O)c2ncccc21 system_name=SF-268 class_label=inactive
molecule="O=C(CC1SC(Nc2ccccc2Cl)=NC1=O)Nc1ccc(Cl)cc1Cl (stereo unspecified)" system_name=SF-268 class_label=inactive
molecule="COc1cc(CC2c3cc(OC)c(OC)cc3CCN2C)c(Oc2cc3c(cc2OC)-c2c(O)c(OC)cc4c2C(C3)N(C)CC4)cc1OC (stereo unspecified)" system_name=SF-268 class_label=inactive
molecule=O=c1nc(N2CCCC2)nc(N2CCCC2)s1 system_name=SF-268 class_label=inactive
molecule="O=C1CC(Cl)c2c(Cl)sc(Cl)c21 (stereo unspecified)" system_name=SF-268 class_label=inactive
molecule="CCOP(=O)(OCC)C(Cc1ccc(OC)c(OC)c1)N=C(c1ccccc1)c1ccccc1 (stereo unspecified)" system_name=SF-268 class_label=inactive
molecule="C=CCN1C(=O)/C(=C/c2ccccc2)N=C1SC1OC(COC(C)=O)C(OC(C)=O)C(OC(C)=O)C1OC(C)=O (stereo unspecified)" system_name=SF-268 class_label=inactive
molecule="CS(=O)(=O)c1ccc(COP(N)(=O)N(CCCl)CCCl)cc1 (stereo unspecified)" system_name=SF-268 class_label=inactive
molecule=O=C(/C=C(\O)C(=O)O)/C=C(\O)c1ccccc1Cl system_name=SF-268 class_label=inactive
molecule=C=C(Nc1ccc([N+](=O)[O-])cc1[N+](=O)[O-])c1c/c(=N\NC(N)=S)c2ccccc2o1 system_name=SF-268 class_label=inactive
molecule=Cc1nn2c(=O)c([N+](=O)[O-])c(/C=C/c3ccco3)nc2s1 system_name=SF-268 class_label=inactive
molecule=Cc1ccc(C(=O)Nc2ccc(S(=O)(=O)O)c3cc(S(=O)(=O)O)cc(S(=O)(=O)O)c23)cc1NC(=O)c1cccc(NC(=O)Nc2cccc(C(=O)Nc3cc(C(=O)Nc4ccc(S(=O)(=O)O)c5cc(S(=O)(=O)O)cc(S(=O)(=O)O)c45)ccc3C)c2)c1 system_name=SF-268 class_label=inactive
molecule=COc1ccc(OC)c2c1C(=O)C(Cl)=C(N1CCN(CCOCCO)CC1)C2=O system_name=SF-268 class_label=inactive
molecule="CCOC(=O)CCC(NC(=O)c1ccc(Nc2nc3ccc(C(F)(F)F)cc3nc2-c2ccccc2)cc1)C(=O)OCC (stereo unspecified)" system_name=SF-268 class_label=inactive
molecule=O=C(/C=C/c1c(O)ccc2ccccc12)c1ccc2ccccc2c1 system_name=SF-268 class_label=inactive
molecule="O=C1CCCC1C(=O)Nc1ccc2ccccc2c1 (stereo unspecified)" system_name=SF-268 class_label=inactive
molecule=O=C(O)Cc1cc(=O)oc2cc(O)c(Cl)cc12 system_name=SF-268 class_label=inactive
molecule="CCCC1=C(CC)C(C(=O)Nc2c(C)cccc2C)=NC(S)N1 (stereo unspecified)" system_name=SF-268 class_label=inactive
molecule="CCN1CCC(O)(c2ccc(Cl)cc2)C(C(=O)c2ccc(Cl)cc2)C1 (stereo unspecified)" system_name=SF-268 class_label=inactive

Provenance of the data: ChEMBL document CHEMBL1201862
